System: UACC-62 melanoma
assay-info: NCI-60 one-dose screen, 48 h (100 = growth as untreated, 0 = no growth, -100 = all killed)
reported-conditions: 10 µM unless noted
The panel holds about 83,000 compounds, 20% with a hit somewhere; the sample as a whole holds those more often. Active and inactive are the calls of the source. How the source made its calls: active means growth percent below 10; inactive means the rest.
Reported growth is given for each of the following compounds.

compound	growth
CC(=O)OC[C@H]1OC(Sc2sc(C(=O)c3ccc(Br)cc3)c(N)c2-c2nc3ccccc3s2)[C@H](OC(C)=O)[C@@H](OC(C)=O)[C@H]1OC(C)=O (stereo partly drawn)	60.4% (inactive)
Oc1ccc(CCl)c2cccnc12	100% (inactive)
O=S(=O)(NCCCNc1cc(-c2c(-c3cccc(O)c3)nc3sccn23)ccn1)c1cccc2ccccc12	39% (inactive)
COc1c(N2CC3CCCN(C(C)=O)C3C2)c(F)cc2c(=O)c(C(=O)N[C@H]3C(O)[C@@H](O)C(CO)O[C@H]3O)cn(C3CC3)c12 (stereo partly drawn)	101% (inactive)
O=C(N/N=C/[C@H](O)[C@H](O)[C@H](O)CO)c1ccc(NC(=O)c2cccnc2)cc1	96.2% (inactive)
CCCCCCNC(=O)Oc1ccc(/C(=C(\C)c2ccc(Cl)cc2)c2ccc(OCCN(CC)CC)cc2)cc1	73.3% (inactive)
c1ccc2c(c1)Nc1ccncc1S2	96.8% (inactive)
COc1ccc([C@H]2c3cc(OC)c(OC)cc3C=C(C=O)C2CO)cc1OC (stereo partly drawn)	33.9% (inactive)
NCCOc1ncccc1/C=C1\C2C=CC=CC2C2C=CC(F)=CC12 (stereo not drawn)	31.5% (inactive)
COc1cc2cc(Oc3ccc(NC(=O)Nc4cccc(C(F)(F)F)c4)cc3)c(C)nc2cc1OCCN1CCOCC1	50.8% (inactive)
COC1=C(C)C(=O)c2c(c(CCCl)c3n2CCC3OC(C)=O)C1=O (stereo not drawn)	-71% (active)
CN1C(=C2C(=O)OC(C)(C)OC2=O)CCC1C(=O)NCc1ccc(Cl)cc1Cl (stereo not drawn)	86.9% (inactive)
Cc1onc2c(-c3ccccc3)n[nH]c(=O)c12	95.3% (inactive)
O=C1/C(=C/c2ccccc2[N+](=O)[O-])Oc2ccc(O)c(O)c21	-41.1% (active)
CN1CCN(c2ccc(-c3ccc4ncc(C#N)c(Nc5ccc(F)c(Cl)c5)c4c3)cn2)CC1	86% (inactive)
NCCNc1nc2ccccc2c2c(=O)c3cccc(F)c3sc12	95.9% (inactive)
CCCSc1nc2ccc(C)cc2cc1/C=[N+](\[O-])c1ccccc1	31.3% (inactive)
c1ccc2c(-c3nc(-c4c[nH]c5ccncc45)cs3)c[nH]c2c1	87.1% (inactive)
